Experiment: yeast display, Sf9 membrane polyspecificity reagent, FACS + sequencing; frameworks hold sequencing errors

- macromolecule_sequence: "QVQLVESVGGLVQAGGSLRLSCAASGSTFGYYTMGSYRQAPGKEKELVAAITWSGGSTYYADSVKGRITISRDNAKYTVYLQINSLKPEDTAVYYCADDDYWTPFGYLGQGTQVTVSS"
  polyreactivity (PSR sort gate): "low polyreactivity"
- macromolecule_sequence: "QVQIVESGGGLVQAGGSLRLSCAAYGRIFVPYAMGWYRPAPGKERELVAAITWRGGSTYYAYSVKGRFTISRDNAKNTVYLQMNSMNPDDTGVYYCNSDEASAGFWFSHLQLGMDYWGQGTQVTVSS"
  polyreactivity (PSR sort gate): "low polyreactivity"

###

Assay: yeast display, Sf9 membrane polyspecificity reagent, FACS + sequencing; frameworks hold sequencing errors

- macromolecule_sequence: "QVQLVESWGGLVQAGGSLRLTCAASGRILWFYSMGWYRQAPGKERELVAAISSSSGRTYYADSVKGRYTISRDNAKNTVSLQMNSLKPEDTAVYYCAATHAVARPLEYDYWGQGTQVTVSS"
  polyreactivity (PSR sort gate): "low polyreactivity"
- macromolecule_sequence: "QVQLVESGGGLVQAGGSLRLSCAASGRILSPYAMGWYRPAPGKERELVAAISRSGGSTYYADSVKGRFTISRDNAKNTVYLQMNSLKPEDTAVYYCNAVIAWYRSDEYDYWGQGTQVTVSS"
  polyreactivity (PSR sort gate): "high polyreactivity"
- macromolecule_sequence: "QVQLVESGGGLDQAGGSLRLSCAASGSIFNFYALGWYRQAPGKERELVAAISWSAGSTYYADSVKGRFTISRDYAKNTVYLQMNSLKPEDTAVYYCAADRYAYDWIQYYYHFLYDYWGQGTQVTVSS"
  polyreactivity (PSR sort gate): "low polyreactivity"
- macromolecule_sequence: "QVQLVESGGGLDQAGGSLRLSCAASGSIFKLNARGWYREAPGKERELVAAITSVGRTYYADSVKGRFTISRDNAKKTVYLQMNSLKPEDTAVYYCGAARYGVYWYGYWGQGTQVTVSS"
  polyreactivity (PSR sort gate): "high polyreactivity"
- macromolecule_sequence: "QVQRVESGGGIVQAGVSLSLSCPASGRIFTSNAMGWYRQEPGKERELVAAIRWSDGSTYYADSVKGRFTISRDNAKNTVYLQMNSLKPEDTAVYYCAADTRTSYYNDDYVFWGQGTQVTVSS"
  polyreactivity (PSR sort gate): "low polyreactivity"
- macromolecule_sequence: "QVQLVESGGGLVQAGGSLRLSCAASGRTFGRYAMGWYRQAPGKERELVAAINRGGSTKYADSVKGRFTISRDNAKNTVYLQRNSQKPEDSAVYYCAKDLHPALHYDYWGQGTQVTVSS"
  polyreactivity (PSR sort gate): "low polyreactivity"
- macromolecule_sequence: "QVQLVESGGGLVQAGGSLRLSCAASGRTFWYNALGWYRQAPGKERELVAAISWSGGTTYYADSVKGRFTISRDNAKNTVYLQMNSLKPEDTAVYYCNAKYRGLAKYDYWGQGTQVTVSS"
  polyreactivity (PSR sort gate): "high polyreactivity"
- macromolecule_sequence: "QVQLVESGRGLLQAGGSLRLSCASSGCIFTSYAMGWYRPAPGKVRELVAGITRGGRTYYADSVKGRFTISRDKAKNTVYLQSNSLKPEDTAVYYCAALSSRHFVFTVDYWGQATQVTVSS"
  polyreactivity (PSR sort gate): "high polyreactivity"
- macromolecule_sequence: "QVQLVESGGGLVQAGGSLRLSCAASGNIFAYYAMGWYRQAPGKERELVAAISRRGGSTYYADSVKGRFTISRDNAKNTVYLQMNSLKPEDTAVYYCNADTGNRGYDYWGQGTQVTVSS"
  polyreactivity (PSR sort gate): "high polyreactivity"
- macromolecule_sequence: "QVQLVESGGGLVQAGGSLRLSCAASGINFGYYAMGWYRQAPGKERELVAAISRRGGSTYYADSVKGRFTISRDNAKNTVYLQMNSLKPEDTAVYYCYKRRAAGGFPYVYWGQGTQVTVSS"
  polyreactivity (PSR sort gate): "high polyreactivity"
- macromolecule_sequence: "QVQLVESGGGLVQAGGSLRLTCAPSVRIFTIYDMGRYRQAPGKERELVATITYSSGSTSYADSVKGRFTISRDNAKNTVYLLMNSLKPEDTAVYYCAKKYYSGYGYWGQGTQVTVSS"
  polyreactivity (PSR sort gate): "low polyreactivity"
